# subject_of_test: T1, recombinant human CTGF-Fc protein (Creative Biomart) (human)
# T1 construct: Bought; also called human CTGF with a human IgG1 Fc Tag
# procedure_details: SPR (Biacore)
assay_metric: Kd

In the examples that follow, each entry is paired with its recorded Kd.
1. lipocalin mutein of SEQ ID NO: 32 (designed binder, also called hNGAL mutein; not shown: C-terminal His-tag) QDSTSDLIPAPPLSKVPLQQNFQDNQFQGKWYVVGWAGNVKLREDKQPFKMSATIYELKEDKSYDVTEVVFEQKKCHYIIKTFVPGSQPGEFTLSPISSSPGLVSHLVRVVSTNYNQHAMVFFKKVHQNREFFWITLYGRTKELTSELKENFIRFSKSLGLPENHIVFPVPIDQCIDG | 0.587 nM
2. lipocalin mutein of SEQ ID NO: 29 (designed binder, Parent hNGAL mutein; also called hNGAL mutein) QDSTSDLIPAPPLSKVPLQQNFQDNQFHGKWYVVGWAGNIKLREDKDPFKMSATIYELKEDKSYNVTEVVFEQKKCHYIIKTFVPGSQPGEFTLGDIKSPPGETSSLVRVVSTNYNQHAMVFFKKVFQNREFFWITLYGRTKELTSELKENFIRFSKSLGLPENHIVFPVPIDQCIDGSAWSHPQFEK | 11.2 nM
3. lipocalin mutein of SEQ ID NO: 26 (designed binder, also called hNGAL mutein; not shown: C-terminal His-tag) QDSTSDLIPAPPLSKVPLQQNFQDNQFQGKWYVVGLAGNYRLREDKDPSKMGATIYELKEDKSYDVTQVQFDDKKCLYVIETFVPGSQPGEFTLGNIKVYPTLESQLVRVVSTNYNQHAMVFFKKVYQNREVFWITLYGRTKELTSELKENFIRFSKSLGLPENHIVFPVPIDQCIDG | 1.32 nM

Problem: Requested read-out: Kd. Entry: lipocalin mutein of SEQ ID NO: 27 (designed binder, also called hNGAL mutein; not shown: C-terminal His-tag) QDSTSDLIPAPPLSKVPLQQNFQDNQFQGKWYVVGLAGNYRLREDKDPSKMGATIYELKEDKSYDVTQVQFDDKKCLYVIETFVPGSQPGEFTLGAIKSYPGLTSQLVRVVSTNYNQHAMVFLKKVYGSEEYFHITLYGRTKELTSELKENFIRFSKSLGLPENHIVFPVPIDQCIDG
Solution: 0.802 nM

Problem: Requested read-out: Kd. Entry: lipocalin mutein of SEQ ID NO: 7 (designed binder, Parent hNGAL mutein; also called hNGAL mutein) QDSTSDLIPAPPLSKVPLQQNFQDNQFHGKWYVVGLAGNYGLRTDKRPSKMFATIYELKEDKSYDVTSVRFEQERCHYTIRTFVPGSQPGEFTTGSIKSRPGQTSSLVRVVSTNYNQHAMVFFKSVIQNREYFAITLYGRTKELTSELKENFIRFSKSLGLPENHIVFPVPIDQCIDGSAWSHPQFEK
Solution: 60.2 nM

Problem: Requested read-out: Kd. Entry: lipocalin mutein of SEQ ID NO: 25 (designed binder, Parent hNGAL mutein; also called hNGAL mutein) QDSTSDLIPAPPLSKVPLQQNFQDNQFHGKWYVVGMAGNFRLREDKDPSKMGATIYELKEDKSYNVTQVQFDDKKCLYVIETFVPGSQPGEFTLGAIKSFPGFTSQLVRVVSTNYNQHAMVFFKKVYQNREVFWITLYGRTKELTSELKENFIRFSKSLGLPENHIVFPVPIDQCIDGSAWSHPQFEK
Solution: 9.27 nM
